B1: library; numbered along this chain (parent)
chain: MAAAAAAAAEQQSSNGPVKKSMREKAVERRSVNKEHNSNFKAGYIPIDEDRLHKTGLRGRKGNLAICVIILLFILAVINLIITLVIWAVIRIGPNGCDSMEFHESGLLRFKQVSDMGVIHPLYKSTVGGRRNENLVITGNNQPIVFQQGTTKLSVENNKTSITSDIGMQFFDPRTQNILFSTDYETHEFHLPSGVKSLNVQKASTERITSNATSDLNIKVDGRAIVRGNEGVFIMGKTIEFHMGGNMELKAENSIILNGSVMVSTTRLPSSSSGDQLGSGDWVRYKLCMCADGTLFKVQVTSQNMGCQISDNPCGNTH

variants of: B1; test: SGCB cell-surface expression functional score (HA stain, bin4 vs bin1, normalised to synonymous) (log10 ratio); higher = more cell-surface SGCB (functional)
Entries are grouped by SGCB cell-surface expression functional score (log10) into these classes: low band = under -0.1, middle band = from -0.1 up to 0.2, high band = 0.2 and over

variant_spec=V77I label_value="low band"
variant_spec=V195S label_value="low band"
variant_spec=E101G label_value="low band"
variant_spec=E10P label_value="middle band"
variant_spec=L153S label_value="low band"
variant_spec=T205M label_value="middle band"
variant_spec=M100P label_value="low band"
variant_spec=S31H label_value="middle band"
variant_spec=L84Q label_value="high band"
variant_spec=G129A label_value="low band"
variant_spec=G62I label_value="high band"
variant_spec=P46T label_value="high band"
variant_spec=G62Y label_value="middle band"
variant_spec=V113R label_value="middle band"
variant_spec=S271T label_value="high band"
variant_spec=A212S label_value="high band"
variant_spec=E104M label_value="middle band"
variant_spec=A9R label_value="high band"
variant_spec=V261H label_value="low band"
variant_spec=G117D label_value="low band"
variant_spec=A7L label_value="middle band"
variant_spec=Y44P label_value="high band"
